Here we list compounds with their recorded pKi when tested on rat KOR (Rattus norvegicus).
Sequence (P34975 whole entry): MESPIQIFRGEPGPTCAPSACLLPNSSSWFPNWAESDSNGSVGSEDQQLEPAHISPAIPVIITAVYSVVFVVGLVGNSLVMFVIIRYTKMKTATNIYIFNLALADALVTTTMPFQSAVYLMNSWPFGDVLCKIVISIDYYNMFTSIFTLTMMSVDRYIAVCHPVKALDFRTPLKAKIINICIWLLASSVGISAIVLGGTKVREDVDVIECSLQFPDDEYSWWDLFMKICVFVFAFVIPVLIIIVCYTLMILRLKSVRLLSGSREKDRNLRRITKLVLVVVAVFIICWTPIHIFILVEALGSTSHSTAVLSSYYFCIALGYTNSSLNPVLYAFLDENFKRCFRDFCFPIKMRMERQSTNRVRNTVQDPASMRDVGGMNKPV
pKi: −log10 of the molar value.
quantity_name: pKi

>>> assay_value("O=C1N[C@@H](Cc2ccccc2)C(=O)N2CCC[C@@H]2C(=O)N[C@H](Cc2ccccc2)C(=O)N[C@H]1Cc1c[nH]c2ccccc12 (single isomer, unassigned) [Stereoisomer 2, cyclo[Phe-D-Pro-D-Phe-Trp]]")
6.44
>>> assay_value("O=C1N[C@H](Cc2c[nH]c3ccccc23)C(=O)N[C@@H](Cc2ccccc2)C(=O)N2CCC[C@@H]2C(=O)N[C@H]1Cc1ccccc1 [[D-Trp]CJ-15,208, cyclo[Phe-D-Pro-Phe-D-Trp]]")
7.66
